target: Rho-associated protein kinase 2 (Homo sapiens); details: at 1 µM
Description: GSK_PKIS: ROCK2 mean inhibition at 1 uM [Nanosyn]

SMILES ENTRY	STUDY TARGET	UNIT SYMBOL	inhibition
c1ccc(-c2n[nH]cc2-c2ccnc(-c3ccc(OCCn4ccnc4)cc3)c2)nc1	Rho-associated protein kinase 2 (Homo sapiens)	%	7.73
CCn1c(-c2nonc2N)nc2cncc(C(=O)NCCNC)c21	Rho-associated protein kinase 2 (Homo sapiens)	%	90.4
CCOc1ccc2c(-c3ccnc(Nc4cc(OC)cc(C(F)(F)F)c4)n3)cnn2n1	Rho-associated protein kinase 2 (Homo sapiens)	%	-0.36
COC(=O)Nc1nc2cc(Oc3ccc(NC(=O)Nc4ccccc4)cc3)ccc2[nH]1	Rho-associated protein kinase 2 (Homo sapiens)	%	17.2
CS(=O)(=O)CCNCc1ccc(-c2ccc3ncnc(Nc4ccc(OCc5cccc(C(F)(F)F)c5)cc4)c3c2)o1	Rho-associated protein kinase 2 (Homo sapiens)	%	3.5
CNC(=O)c1cncc(/C=C/c2ccccc2C)c1	Rho-associated protein kinase 2 (Homo sapiens)	%	8.78
CS(=O)(=O)CCNCc1ccoc1-c1ccc2ncnc(Nc3ccc(OCc4ccccc4)cc3)c2c1	Rho-associated protein kinase 2 (Homo sapiens)	%	0.07
CC1(C)CC(n2cnc(-c3ccc(F)cc3)c2-c2ccnc(N)n2)CC(C)(C)N1	Rho-associated protein kinase 2 (Homo sapiens)	%	1.8
COc1c(C(N)=O)cc(-c2ccc(Cl)cc2)cc1-c1ccc(S(N)(=O)=O)cc1	Rho-associated protein kinase 2 (Homo sapiens)	%	5.06
NS(=O)(=O)c1ccc(N/N=C2\C(=O)Nc3ccc(C(=O)NCc4ccncc4)cc32)cc1	Rho-associated protein kinase 2 (Homo sapiens)	%	15.1
Fc1ccc(Nc2nccc(-c3c(-c4ccc(C(F)(F)F)cc4)nn4ncccc34)n2)cc1F	Rho-associated protein kinase 2 (Homo sapiens)	%	2.36
CN(c1ccc(NC(=O)NCCN2CCOCC2)cc1)c1ccnc(Nc2ccc(CS(C)(=O)=O)cc2)n1	Rho-associated protein kinase 2 (Homo sapiens)	%	18.1

---

target: Dual specificity tyrosine-phosphorylation-regulated kinase 1B (Homo sapiens); settings: at 0.1 µM;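 further: values are mean percent inhibition of DYRK1B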
Classify by measured inhibition: Condition met if it is equal to or exceeds 6%, Condition not met if it is smaller.

SMILES ENTRY	ANSWER LABEL
CCOc1ccc2c(-c3ccnc(Nc4cc(OC)cc(C(F)(F)F)c4)n3)cnn2n1	Condition met
CNC(=O)c1ncccc1Nc1nc(Nc2cc3c(cc2OC)CCCN3C(=O)CN(C)C)nc2[nH]ccc12	Condition not met
CCS(=O)(=O)c1ccc(OC)c(Nc2ncc(-c3cccc(F)c3)o2)c1	Condition not met
COc1cc(N2CCN(C(C)C)CC2)ccc1Nc1nc(Nc2cccc(F)c2C(=O)O)c2cc[nH]c2n1	Condition not met
CCN1CCC(C(=O)Nc2n[nH]c3nnc(-c4cccc(F)c4F)cc23)CC1	Condition met
COc1cc(N2CCN(C(C)C)CC2)ccc1Nc1nc(Nc2cccc3ncccc23)c2cc[nH]c2n1	Condition not met

---

target: Ephrin type-B receptor 2 (Homo sapiens) (UniProt P29323); details: at 0.1 µM;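 further: reported as mean inhibition of EPHB2, from the GSK PKIS dataset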
Sequence (P29323 whole entry): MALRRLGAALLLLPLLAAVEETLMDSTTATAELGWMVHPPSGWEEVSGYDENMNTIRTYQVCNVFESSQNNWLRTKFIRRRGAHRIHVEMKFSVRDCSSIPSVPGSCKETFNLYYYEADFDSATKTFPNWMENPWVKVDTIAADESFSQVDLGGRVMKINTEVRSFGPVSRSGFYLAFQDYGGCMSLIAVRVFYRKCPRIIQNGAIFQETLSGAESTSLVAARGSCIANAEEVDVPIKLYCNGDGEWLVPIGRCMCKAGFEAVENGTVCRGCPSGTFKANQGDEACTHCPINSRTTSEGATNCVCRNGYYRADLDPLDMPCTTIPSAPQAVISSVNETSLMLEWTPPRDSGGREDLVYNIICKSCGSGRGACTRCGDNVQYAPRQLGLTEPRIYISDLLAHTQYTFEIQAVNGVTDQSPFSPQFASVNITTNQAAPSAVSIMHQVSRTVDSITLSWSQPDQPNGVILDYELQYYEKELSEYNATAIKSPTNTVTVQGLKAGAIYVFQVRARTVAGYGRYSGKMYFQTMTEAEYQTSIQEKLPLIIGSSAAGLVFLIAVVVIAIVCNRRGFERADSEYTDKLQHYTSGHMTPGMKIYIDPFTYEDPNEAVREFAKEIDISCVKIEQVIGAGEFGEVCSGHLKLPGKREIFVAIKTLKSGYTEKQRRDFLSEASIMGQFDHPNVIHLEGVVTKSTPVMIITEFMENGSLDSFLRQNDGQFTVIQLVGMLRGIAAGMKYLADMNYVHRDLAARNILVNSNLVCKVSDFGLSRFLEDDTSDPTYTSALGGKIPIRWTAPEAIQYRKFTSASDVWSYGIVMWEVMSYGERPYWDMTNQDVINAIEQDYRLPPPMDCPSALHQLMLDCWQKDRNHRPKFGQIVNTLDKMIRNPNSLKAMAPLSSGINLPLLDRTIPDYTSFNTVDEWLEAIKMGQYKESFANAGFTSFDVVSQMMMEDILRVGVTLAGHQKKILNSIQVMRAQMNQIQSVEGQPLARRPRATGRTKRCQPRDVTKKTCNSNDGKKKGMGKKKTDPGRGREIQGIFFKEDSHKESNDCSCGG

COMPOUND	UNIT SYMBOL	inhibition
Cc1ccc(-c2cc3c(NC(=O)C4CC4)ncnc3o2)cc1	%	9.13
O=C(O[C@H]1CN[C@H](C#Cc2cc3ncnc(Nc4ccc(OCc5cccc(F)c5)c(Cl)c4)c3s2)C1)N1CCOCC1	%	7.71
CC1=C(C(=O)Nc2ccc3[nH]ncc3c2)C(c2ccc(F)cc2)N=C(c2ccc(C(F)(F)F)nc2)N1 (stereo unspecified)	%	8.47
COc1cccc(-n2ncc3c(N/N=C/c4ccc(C(=O)NCCN(C)C)cc4)ncnc32)c1	%	14.1
COc1cccc(Nc2nccc(-c3cnn4ncccc34)n2)c1	%	9.43
OCCCNc1nccc(-c2c(-c3ccc(F)cc3)nn3cc(C(F)(F)F)ccc23)n1	%	8.48
